Ref: patent US10336729B2

Give IC50 for every item shown.
system_name: UniProtKB Q16853
Sequence (Q16853 whole entry): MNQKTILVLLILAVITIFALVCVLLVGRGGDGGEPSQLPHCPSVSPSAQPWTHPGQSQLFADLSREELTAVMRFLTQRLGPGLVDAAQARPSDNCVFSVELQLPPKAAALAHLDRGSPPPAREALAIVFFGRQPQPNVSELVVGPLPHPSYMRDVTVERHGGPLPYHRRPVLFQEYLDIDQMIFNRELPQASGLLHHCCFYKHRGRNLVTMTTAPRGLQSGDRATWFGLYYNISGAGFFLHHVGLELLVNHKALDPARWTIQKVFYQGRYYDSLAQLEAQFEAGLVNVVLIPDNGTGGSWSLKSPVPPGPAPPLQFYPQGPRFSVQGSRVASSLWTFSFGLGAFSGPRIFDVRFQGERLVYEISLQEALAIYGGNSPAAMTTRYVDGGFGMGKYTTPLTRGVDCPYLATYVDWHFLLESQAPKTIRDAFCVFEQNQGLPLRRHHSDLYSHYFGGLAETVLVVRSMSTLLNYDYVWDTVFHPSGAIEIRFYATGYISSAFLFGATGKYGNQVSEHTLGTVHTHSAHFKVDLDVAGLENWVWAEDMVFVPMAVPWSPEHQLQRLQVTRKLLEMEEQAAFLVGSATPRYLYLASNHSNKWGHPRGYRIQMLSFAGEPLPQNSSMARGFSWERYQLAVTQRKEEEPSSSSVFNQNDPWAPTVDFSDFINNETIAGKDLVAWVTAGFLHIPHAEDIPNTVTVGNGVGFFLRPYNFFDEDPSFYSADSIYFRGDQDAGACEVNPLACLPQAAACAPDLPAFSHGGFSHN
assay_summary: MAO-Glo AOC3 assay
experimental_parameters: recombinant CHO cells overexpressing AOC3 enzyme
Experimental: The MAO-Glo™ Assay (commercial available from PROMEGA, #V1402) provides a sensitive method for the measurement of monoamine oxidase (MAO) activity (Valley, M. P. et al., 2006, Anal. Biochem. 359: 238-246) from a variety of tissues, biofluids or recombinant expressed or purified enzymes. […] After a spontaneous elimination and a catalyzed esterase reaction, the turnover of the luciferine by the luciferase is recorded as a signal of AOC3 activity. […]
Answers are plain numbers, in nM.

N#Cc1ccc(COC(=O)NC(=N)N)c(F)c1N1CCN(c2cnccn2)CC1 [Example 1.007]
10

Please look at the items below and tell me IC50 for each one, in order.
1. N#Cc1ccc(COC(=O)NC(=N)N)c(F)c1N1CCN(c2cccc(F)c2)CC1 [Example 1.028]
2. N#Cc1ccc(COC(=O)NC(=N)N)c(F)c1N1CC=C(c2ccc(Cl)cc2)CC1 [Example 1.057]

Ans.
14
6
